Origin of the recorded values: patent US20210347873A1

biological target: T1, human BLyS (full length, arginine to histidine at position 132) on CHO-K1 cells (human, UniProt Q9Y275 1-285); experiment: flow cytometry, CHO-K1 hBLyS cells, antibody 66.7 nM
T1 construct: also called hBLyS; CHO-K1 hBLyS
T1 sequence (Q9Y275 whole entry R130H): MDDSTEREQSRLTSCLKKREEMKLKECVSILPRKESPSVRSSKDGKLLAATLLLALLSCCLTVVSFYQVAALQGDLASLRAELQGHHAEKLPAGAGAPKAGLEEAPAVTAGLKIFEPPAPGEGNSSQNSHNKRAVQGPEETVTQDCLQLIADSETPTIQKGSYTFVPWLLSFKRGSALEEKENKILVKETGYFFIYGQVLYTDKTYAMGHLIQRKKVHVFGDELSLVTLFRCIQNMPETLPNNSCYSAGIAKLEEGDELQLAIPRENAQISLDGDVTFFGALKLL
binders and their reported MFI
The response must be a number in MFI with no trailing unit.

Consider the worked cases shown below.
>>> value("67A2E1D10 (antibody, V domains shown, Mouse hybridoma monoclonal antibody purified on Protein G) VH: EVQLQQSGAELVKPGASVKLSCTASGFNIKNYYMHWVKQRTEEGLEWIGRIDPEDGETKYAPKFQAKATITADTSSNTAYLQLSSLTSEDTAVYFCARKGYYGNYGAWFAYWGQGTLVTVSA VL: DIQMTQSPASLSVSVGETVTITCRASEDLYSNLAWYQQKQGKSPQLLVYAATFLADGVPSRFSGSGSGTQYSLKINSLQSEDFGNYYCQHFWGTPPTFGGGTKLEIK")
432
>>> value("78C11D2D12 (antibody, V domains shown, Mouse hybridoma monoclonal antibody purified on Protein G) VH: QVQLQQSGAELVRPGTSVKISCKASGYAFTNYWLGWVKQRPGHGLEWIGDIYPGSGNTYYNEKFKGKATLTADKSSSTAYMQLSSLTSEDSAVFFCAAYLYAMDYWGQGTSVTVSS VL: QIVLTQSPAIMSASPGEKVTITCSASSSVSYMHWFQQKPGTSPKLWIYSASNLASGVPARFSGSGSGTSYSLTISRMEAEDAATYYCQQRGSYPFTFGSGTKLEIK")
356
>>> value("35E6F7C3 (antibody, V domains shown, Mouse hybridoma monoclonal antibody purified on Protein G) VH: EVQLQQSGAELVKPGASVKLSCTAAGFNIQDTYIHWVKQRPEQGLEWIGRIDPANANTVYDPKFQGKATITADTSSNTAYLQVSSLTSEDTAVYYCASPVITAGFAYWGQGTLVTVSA VL: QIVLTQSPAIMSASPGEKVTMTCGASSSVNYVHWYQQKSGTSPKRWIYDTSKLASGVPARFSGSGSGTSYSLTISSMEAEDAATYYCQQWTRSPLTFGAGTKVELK")
609
>>> value("93C6F10D3 (antibody, V domains shown, Mouse hybridoma monoclonal antibody purified on Protein G) VH: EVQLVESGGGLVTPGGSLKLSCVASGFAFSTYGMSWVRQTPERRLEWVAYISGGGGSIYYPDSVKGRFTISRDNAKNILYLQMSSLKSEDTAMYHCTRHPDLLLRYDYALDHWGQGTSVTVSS VL: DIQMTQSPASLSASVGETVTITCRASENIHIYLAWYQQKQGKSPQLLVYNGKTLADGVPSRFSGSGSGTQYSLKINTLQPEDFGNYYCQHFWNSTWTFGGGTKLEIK")
392
>>> value("97A3C2H4 (antibody, V domains shown, Mouse hybridoma monoclonal antibody purified on Protein G) VH: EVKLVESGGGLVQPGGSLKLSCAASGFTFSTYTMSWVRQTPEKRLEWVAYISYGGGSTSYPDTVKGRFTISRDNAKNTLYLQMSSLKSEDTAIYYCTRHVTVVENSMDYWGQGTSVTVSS VL: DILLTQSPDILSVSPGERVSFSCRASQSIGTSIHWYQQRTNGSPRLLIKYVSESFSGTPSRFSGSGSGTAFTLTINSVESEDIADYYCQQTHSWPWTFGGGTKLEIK")
525
>>> value("20D1B6E9E5 (antibody, V domains shown, Mouse hybridoma monoclonal antibody purified on Protein G) VH: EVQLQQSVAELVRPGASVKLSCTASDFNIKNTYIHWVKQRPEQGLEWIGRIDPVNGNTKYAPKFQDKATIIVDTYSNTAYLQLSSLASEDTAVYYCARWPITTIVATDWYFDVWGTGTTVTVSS VL: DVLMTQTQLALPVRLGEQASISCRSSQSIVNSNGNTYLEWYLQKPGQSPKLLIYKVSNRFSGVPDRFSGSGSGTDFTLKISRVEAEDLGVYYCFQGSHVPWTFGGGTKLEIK")
535
>>> value("89A2G5E7 (antibody, V domains shown, Mouse hybridoma monoclonal antibody purified on Protein G) VH: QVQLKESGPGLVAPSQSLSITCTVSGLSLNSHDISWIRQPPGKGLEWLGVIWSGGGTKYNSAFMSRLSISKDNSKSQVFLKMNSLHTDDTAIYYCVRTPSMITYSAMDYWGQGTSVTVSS VL: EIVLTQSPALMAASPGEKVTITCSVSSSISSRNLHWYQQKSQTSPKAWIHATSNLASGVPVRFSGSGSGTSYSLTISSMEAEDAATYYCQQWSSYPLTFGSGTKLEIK")
431

Shift focus to the following entry.
Give me measured MFI, please, for this binder: 8E7D9C7F5 (antibody, V domains shown, Mouse hybridoma monoclonal antibody purified on Protein G) VH: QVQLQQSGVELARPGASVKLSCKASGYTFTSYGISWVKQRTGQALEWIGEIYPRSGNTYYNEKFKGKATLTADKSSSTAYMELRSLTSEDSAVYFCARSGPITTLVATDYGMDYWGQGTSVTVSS VL: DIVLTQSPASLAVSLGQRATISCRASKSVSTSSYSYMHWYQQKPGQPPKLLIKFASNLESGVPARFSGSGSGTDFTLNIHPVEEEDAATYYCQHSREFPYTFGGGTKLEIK
596
